Where these numbers come from: paper PMC11338949

Target: BTK PH-TH E41K/R28H (Bos taurus, UniProt Q3ZC95, E41K/R28H)
Construct: amino acid residue number 4–170; His-SUMO (N, cleaved yes); made in house; host or cells: E. coli BL21-DE3
Sequence (Q3ZC95 4-170 R28H/E41K): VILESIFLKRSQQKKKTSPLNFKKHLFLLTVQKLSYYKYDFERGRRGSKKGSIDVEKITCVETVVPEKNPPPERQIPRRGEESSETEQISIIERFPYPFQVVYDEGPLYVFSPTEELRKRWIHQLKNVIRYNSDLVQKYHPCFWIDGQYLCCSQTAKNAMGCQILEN
Assay: Isothermal titration calorimetry, IP6 binding to PH-TH E41K/R28H
Conditions: ITC, one-site fit, weak binding to peripheral lipid binding site; read-out: Kd
readout: Kd (nM)
Give the value, in units of nM, as a plain number.

Query :: Suppose we examine the compound O=P(O)(O)OC1C(OP(=O)(O)O)C(OP(=O)(O)O)C(OP(=O)(O)O)C(OP(=O)(O)O)C1OP(=O)(O)O (stereo not shown) [IP6, inositol hexakisphosphate] ; what Kd value has been reported?
Result :: 2400

###

Molecular target: BTK PH-TH E41K/R28H (Bos taurus, UniProt Q3ZC95, E41K/R28H)
Construct: amino acid residue number 4–170; His-SUMO (N, cleaved yes); made in house; host or cells: E. coli BL21-DE3
Assay: Isothermal titration calorimetry, IP6 binding to PH-TH E41K/R28H
Conditions: ITC, Table S1; read-out: Kd1
readout: Kd
The answer consists of two parts: a number and, after it, its unit.

Query :: Can you look up the measured Kd of O=P(O)(O)OC1C(OP(=O)(O)O)C(OP(=O)(O)O)C(OP(=O)(O)O)C(OP(=O)(O)O)C1OP(=O)(O)O (stereo not shown) [IP6, inositol hexakisphosphate] for me?
Result :: 2420 nM

###

Target: PH-TH^E41K (isolated PH-TH domain of BTK, E41K mutant) (Bos taurus, UniProt Q3ZC95, E41K)
Construct: amino acid residue number 4–170; His-SUMO (N, cleaved yes); made in house; host or cells: E. coli BL21-DE3
Sequence (Q3ZC95 4-170 E41K): as the sequence (Q3ZC95 4-170 R28H/E41K) above, with H25R counted along it
Assay: Isothermal titration calorimetry, ligand binding to isolated PH-TH domain E41K mutant
Conditions: ITC, two-site independent binding model, weak site, 20 °C; read-out: Kd2
Method: The isothermal titration calorimetry experiments were performed using MicroCal ITC (GE Healthcare) and MicroCal PEAQ-ITC (Malvern). The PH-TH domain was buffer exchanged to 20 mM HEPES, 150 mM NaCl, pH 7.5. During the titration, 25 μM protein in the cell was titrated with a ligand at the protein-to-ligand ratio of 1: 5.5. All ITC titrations were performed at 20 °C. The initial injection of 0.5 μl was excluded from the data analysis. […]
readout: Kd (nM)
Report only the number, with the unit nM understood.

Query :: I have this molecule here, O=P(O)(O)OC1C(OP(=O)(O)O)C(OP(=O)(O)O)C(OP(=O)(O)O)C(OP(=O)(O)O)C1OP(=O)(O)O (stereo not shown) [IP6, inositol hexakisphosphate] , and I need its recorded Kd.
Result :: 1300

###

Molecular target: BTK PH-TH E41K/R49S (Bos taurus, UniProt Q3ZC95, E41K/R49S)
Construct: amino acid residue number 4–170; His-SUMO (N, cleaved yes)
Sequence (Q3ZC95 4-170 E41K/R49S): as the sequence (Q3ZC95 4-170 R28H/E41K) above, with H25R, R46S counted along it
Assay: Isothermal titration calorimetry, IP6 binding to PH-TH E41K/R49S
Conditions: ITC, one-site fit, binding to canonical lipid binding site; read-out: Kd (Kd1)
readout: pKd
Interpret pKd as the negative base-10 log of the concentration measured in mol/L.

Query :: Query (compound): O=P(O)(O)OC1C(OP(=O)(O)O)C(OP(=O)(O)O)C(OP(=O)(O)O)C(OP(=O)(O)O)C1OP(=O)(O)O (stereo not shown) [IP6, inositol hexakisphosphate] ; field requested: pKd
Result :: 6.21

###

Target: PH-TH^E41K (isolated PH-TH domain of BTK, E41K mutant) (Bos taurus, UniProt Q3ZC95, E41K)
Construct: amino acid residue number 4–170; His-SUMO (N, cleaved yes); made in house; host or cells: E. coli BL21-DE3
Assay: Isothermal titration calorimetry, ligand binding to isolated PH-TH domain E41K mutant
Settings: ITC, two-site independent binding model, strong site, 20 °C; read-out: Kd1
readout: Kd (nM)
Just the number please, in nM, no unit attached.

Query :: Fill in: Kd of O=P(O)(O)OC1C(OP(=O)(O)O)C(OP(=O)(O)O)C(OP(=O)(O)O)C(OP(=O)(O)O)C1OP(=O)(O)O (stereo not shown) [IP6, inositol hexakisphosphate] is ___
Result :: 152
